biological target: recombinant human PAI-1 (Homo sapiens); construct: purchased Molecular Innovations, Inc; assay: Test Example 2: human PAI-1 inhibitory activity (tPA fluorogenic substrate, pH 7.4 HEPES buffer); assay type: biochemical; settings: human PAI-1; compound concentration 0.1 μM
Sequence (P05121 24-402): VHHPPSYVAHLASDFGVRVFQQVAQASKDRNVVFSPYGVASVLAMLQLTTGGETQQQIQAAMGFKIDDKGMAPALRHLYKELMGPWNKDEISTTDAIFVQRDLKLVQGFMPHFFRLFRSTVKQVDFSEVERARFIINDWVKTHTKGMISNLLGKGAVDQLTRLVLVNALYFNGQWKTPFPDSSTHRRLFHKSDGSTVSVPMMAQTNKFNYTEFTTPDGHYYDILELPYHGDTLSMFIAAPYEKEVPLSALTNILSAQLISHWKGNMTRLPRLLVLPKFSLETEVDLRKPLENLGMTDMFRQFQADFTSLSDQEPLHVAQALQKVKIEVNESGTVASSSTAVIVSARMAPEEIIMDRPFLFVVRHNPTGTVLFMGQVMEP
The reader will find reported Inhibition Rate of PAI-1 Activity (%) values listed item by item below.

- molecule: "Cc1cc(C)cc(-c2ccc(/C=C/C(=O)O)c(Oc3ccc(C(C)(C)C)cc3)c2)c1 [Compound 496]"
  Inhibition Rate of PAI-1 Activity (%): 4
- molecule: "CC(C)(C)c1ccc(C(=O)c2cc(-c3ccc(OC(F)(F)F)cc3)ccc2OCC(=O)O)cc1 [Compound 549]"
  Inhibition Rate of PAI-1 Activity (%): 23
- molecule: "CCCCCCCOc1cc(-c2ccc(OC(F)(F)F)cc2)cc(OCCCCCCC)c1OCC(=O)O [Compound 425]"
  Inhibition Rate of PAI-1 Activity (%): 17
- molecule: "Cc1cc(C)cc(COc2ccc(-c3ccc(OC(F)(F)F)cc3)cc2N(CCCCc2ccccc2)C(=O)C(=O)O)c1 [Compound 662]"
  Inhibition Rate of PAI-1 Activity (%): 18
- molecule: "CCCCOc1ccc(-c2ccc(OCC(=O)O)c(Oc3ccc(C(C)(C)C)cc3)c2)cc1 [Compound 468]"
  Inhibition Rate of PAI-1 Activity (%): 1
- molecule: "CCCCc1ccc(-c2ccc(OCC(=O)O)c(Oc3ccc(C(C)(C)C)cc3)c2)cc1 [Compound 443]"
  Inhibition Rate of PAI-1 Activity (%): 7
- molecule: "COc1ccc(-c2ccc(OC(F)(F)F)cc2)cc1N(CCCCc1ccccc1)C(=O)C(=O)O [Compound 651]"
  Inhibition Rate of PAI-1 Activity (%): 0
- molecule: "CC(C)(C)c1ccc(Oc2ccc(-c3ccc(OC(F)(F)F)cc3)cc2OCC(=O)O)cc1 [Compound 328]"
  Inhibition Rate of PAI-1 Activity (%): 0
- molecule: "CC(C)(C)c1ccc(Oc2cc(Nc3ccc(OC(F)(F)F)cc3)ccc2CCC(=O)O)cc1 [Compound 532]"
  Inhibition Rate of PAI-1 Activity (%): 12
